System: Fibroblast
assay-summary: Incucyte cell viability with human fibroblast; also: filed as whole numbers so only -1 and 0 and 1 occur
Assay type: toxicity, cell-based
reported-conditions: 18 h, 10 µM, compound concentration 10 uM, replicate number 1, timepoint 18 hours
readout-type: Growth Rate
Could you keep your reply to the number by itself?

These recorded examples may help you get a feel for the data.
CC(C)(Sc1ccc(CCN(CCCCC2CCCCC2)C(=O)NC2CCCCC2)cc1)C(=O)O [GW7647] : 1
Cn1cc(CCn2cnc(-c3cnn(C)c3)c2-c2ccc(C#N)cc2)cn1 : 1

Prompt line: // query Growth Rate value for entry C#C[C@]1(O)CC[C@H]2[C@@H]3CCc4cc(O)ccc4[C@H]3CC[C@@]21C [ETHINYL ESTRADIOL]
Response line: 0
